# EXPERIMENT: Binding affinity to HCV 29-mer 2A RNA by MS based binding assay
# Design: species or system Hepacivirus hominis
ASSAY ENDPOINT: pKd
// field semantics: pKd = negative decimal log of concentration (mol/L)

### Prompt Name the recorded pKd of the item CCN(CC)CCCn1c(N)nc2ccccc21 in your answer.
### Response 3.89

### Prompt Report pKd, nothing else, for this molecule: COc1cccc2nc(N)n(CCCN(C)C)c12
### Response 4.30

### Prompt Provide only the value of recorded pKd for CN(C)CCCn1c(N)nc2ccc(OCCN(C)C)cc21
### Response 5.10

### Prompt Name the recorded pKd of the molecule listed here: CN(C)CCCn1c(N)nc2ccc(OCc3ccccc3)cc21
### Response 4.00

### Prompt Give pKd for the following molecule: CN(C)CCCn1c(N)nc2ccccc21
### Response 4.00

### Prompt Tell me pKd reported for CN(C)CCCOc1ccc2nc(N)n(CCCN(C)C)c2c1
### Response 5.00

### Prompt Quick one: give measured pKd for CN(C)CCCCOc1ccc2nc(N)n(CCCN(C)C)c2c1
### Response 5.15
